The measured values listed here are drawn from PubChem BioAssay (NCI).

test system: SN12C renal; test: NCI tumour cell line growth inhibition, 48 h
readout name: GI50

Recorded GI50 (compound "c1ccc(-c2n(Cc3ccc4ccccc4c3)cc[n+]2Cc2ccc3ccccc3c2)cc1" ): 1.26 µM

----------
test system: CCRF-CEM leukemia; experiment: NCI tumour cell line growth inhibition, 48 h
readout name: TGI

Recorded results for 5 molecules are shown here.
Cc1cc(S(=O)(=O)NC2=NCCN2Cc2ccccc2)c(S)cc1Cl; > 100 µM
COc1ccc(C(=O)O[C@H]2[C@H](O[C@H]3[C@@H](O)COC(O[C@H]4C[C@H]5[C@@H]6CC=C7C[C@@H](O)CC[C@]7(C)[C@H]6CC[C@]5(C)[C@H]4[C@H](C)C(=O)CCC(C)C)[C@@H]3OC(C)=O)OC[C@@H](O)[C@@H]2O)c(C)c1 (stereo partly drawn); 0.13 µM
COc1ccccc1/C=C/C1=C(C)CCC(c2ccccc2OC)C1C (stereo not drawn); > 100 µM
CCCCCCCCCCCCCCCCCCOc1ccccc1CC(=O)OCC[N+](CC)(CC)CC; 13.1 µM
CC1(C(=O)O)C[C@](C)(C(=O)OCc2ccccc2)C[C@](C)(C(=O)OCc2ccccc2)C1 (stereo partly drawn); > 100 µM

Recorded TGI (molecule "CCOC(=O)c1nc2ccccc2nc1Nc1ccc(OC)cc1" ): > 100 µM

Recorded TGI (molecule "CS(C)(=O)=Nn1c(=O)n2n(c1=O)C1c3ccccc3C2c2ccccc21" ): > 100 µM

Recorded TGI (molecule COC(=O)C1=C(OC(=O)/C=C/c2ccc(Cl)cc2)C(C(=O)OC)[C@]2(O)[C@@H](C(=O)OC)[C@H]1C[C@@H](c1ccccc1)[C@@H]2C(=O)OC (stereo partly drawn) ): > 100 µM

Recorded TGI (molecule "CCCCCCSCC/C(C)=N\OC" ): > 100 µM

Recorded TGI (molecule "C=C1C(=O)O[C@H]2[C@H]1CC/C(Cn1cc(-c3cccc(Cl)c3)nn1)=C\CC[C@@]1(C)O[C@@H]21" ): 0.685 µM
